- system.under.test: Ba/F3 De119/T790M/C797S EGFR triple mutant cell line (Homo sapiens, UniProt P00533, T790M/C797S, cells depend on it, form not given)
- Sequence (P00533 with tags, fused parts or gaps DEL746-750/T790M/C797S, form open): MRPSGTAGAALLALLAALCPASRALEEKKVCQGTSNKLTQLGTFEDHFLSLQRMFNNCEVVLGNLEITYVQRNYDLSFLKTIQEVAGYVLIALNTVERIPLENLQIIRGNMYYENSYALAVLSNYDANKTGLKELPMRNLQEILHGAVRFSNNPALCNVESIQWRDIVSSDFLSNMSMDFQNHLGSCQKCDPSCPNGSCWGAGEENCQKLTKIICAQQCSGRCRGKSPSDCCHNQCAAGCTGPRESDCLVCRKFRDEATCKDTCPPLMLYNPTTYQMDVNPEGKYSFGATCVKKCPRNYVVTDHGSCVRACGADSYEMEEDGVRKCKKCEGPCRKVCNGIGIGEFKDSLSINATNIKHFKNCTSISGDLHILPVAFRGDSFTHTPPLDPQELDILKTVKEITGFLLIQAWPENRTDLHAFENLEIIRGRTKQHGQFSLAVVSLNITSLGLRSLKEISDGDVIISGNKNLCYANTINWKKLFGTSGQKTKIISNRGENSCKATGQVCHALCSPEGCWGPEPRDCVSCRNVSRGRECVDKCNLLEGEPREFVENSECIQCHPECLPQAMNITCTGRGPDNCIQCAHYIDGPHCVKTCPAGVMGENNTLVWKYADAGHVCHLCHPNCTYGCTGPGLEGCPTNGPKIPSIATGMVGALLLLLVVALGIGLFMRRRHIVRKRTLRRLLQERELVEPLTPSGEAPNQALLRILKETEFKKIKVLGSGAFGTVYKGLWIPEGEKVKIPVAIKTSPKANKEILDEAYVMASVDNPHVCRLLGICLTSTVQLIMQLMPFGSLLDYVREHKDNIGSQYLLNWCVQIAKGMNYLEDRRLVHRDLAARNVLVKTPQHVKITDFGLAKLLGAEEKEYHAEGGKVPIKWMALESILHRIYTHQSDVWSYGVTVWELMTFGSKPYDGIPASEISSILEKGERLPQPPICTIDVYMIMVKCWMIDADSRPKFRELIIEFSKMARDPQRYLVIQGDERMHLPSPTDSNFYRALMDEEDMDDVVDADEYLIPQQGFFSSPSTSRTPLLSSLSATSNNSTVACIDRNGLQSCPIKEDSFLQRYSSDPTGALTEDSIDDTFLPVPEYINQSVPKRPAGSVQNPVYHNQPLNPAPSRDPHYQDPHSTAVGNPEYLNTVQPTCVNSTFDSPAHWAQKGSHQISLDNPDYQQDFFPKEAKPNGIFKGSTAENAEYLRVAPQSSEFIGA
- protocol.notes: Cell proliferation inhibition experiment (CellTiter-Glo), Ba/F3 De119/T790M/C797S
- Format: cell-based
- conditions.used: Ba/F3 Del19/T790M/C797S EGFR triple mutant cells, 72 hours, Cell Titer-Glo; read-out: Ba/F3 (Del19/T790M/C797S) IC50
recorded.endpoint: GI50 (nM)

A. COc1cc(N2CCC(C)(OC)CC2)c(-c2c[nH]n(C)c2=O)cc1Nc1ncc(Br)c(Nc2ccc3nccnc3c2P(C)(C)=O)n1
B. COc1cc(N2CCC(N3CCC(OC)CC3)CC2)c(-c2cnn(C)c2)cc1Nc1ncc(Br)c(Nc2ccc3nccnc3c2P(C)(C)=O)n1
C. COc1cc(F)c(-c2cnn(C)c2)cc1Nc1ncc(Br)c(Nc2ccc3nccnc3c2P(C)(C)=O)n1
Put the listed items above in order, lowest GI50 first. Reply with the item labels sorted in the order that was asked for.
B, A, C

====

- system.under.test: wild-type EGFR (Homo sapiens, UniProt P00533)
- Construct: purchased Signalchem
- Sequence (P00533 25-1210): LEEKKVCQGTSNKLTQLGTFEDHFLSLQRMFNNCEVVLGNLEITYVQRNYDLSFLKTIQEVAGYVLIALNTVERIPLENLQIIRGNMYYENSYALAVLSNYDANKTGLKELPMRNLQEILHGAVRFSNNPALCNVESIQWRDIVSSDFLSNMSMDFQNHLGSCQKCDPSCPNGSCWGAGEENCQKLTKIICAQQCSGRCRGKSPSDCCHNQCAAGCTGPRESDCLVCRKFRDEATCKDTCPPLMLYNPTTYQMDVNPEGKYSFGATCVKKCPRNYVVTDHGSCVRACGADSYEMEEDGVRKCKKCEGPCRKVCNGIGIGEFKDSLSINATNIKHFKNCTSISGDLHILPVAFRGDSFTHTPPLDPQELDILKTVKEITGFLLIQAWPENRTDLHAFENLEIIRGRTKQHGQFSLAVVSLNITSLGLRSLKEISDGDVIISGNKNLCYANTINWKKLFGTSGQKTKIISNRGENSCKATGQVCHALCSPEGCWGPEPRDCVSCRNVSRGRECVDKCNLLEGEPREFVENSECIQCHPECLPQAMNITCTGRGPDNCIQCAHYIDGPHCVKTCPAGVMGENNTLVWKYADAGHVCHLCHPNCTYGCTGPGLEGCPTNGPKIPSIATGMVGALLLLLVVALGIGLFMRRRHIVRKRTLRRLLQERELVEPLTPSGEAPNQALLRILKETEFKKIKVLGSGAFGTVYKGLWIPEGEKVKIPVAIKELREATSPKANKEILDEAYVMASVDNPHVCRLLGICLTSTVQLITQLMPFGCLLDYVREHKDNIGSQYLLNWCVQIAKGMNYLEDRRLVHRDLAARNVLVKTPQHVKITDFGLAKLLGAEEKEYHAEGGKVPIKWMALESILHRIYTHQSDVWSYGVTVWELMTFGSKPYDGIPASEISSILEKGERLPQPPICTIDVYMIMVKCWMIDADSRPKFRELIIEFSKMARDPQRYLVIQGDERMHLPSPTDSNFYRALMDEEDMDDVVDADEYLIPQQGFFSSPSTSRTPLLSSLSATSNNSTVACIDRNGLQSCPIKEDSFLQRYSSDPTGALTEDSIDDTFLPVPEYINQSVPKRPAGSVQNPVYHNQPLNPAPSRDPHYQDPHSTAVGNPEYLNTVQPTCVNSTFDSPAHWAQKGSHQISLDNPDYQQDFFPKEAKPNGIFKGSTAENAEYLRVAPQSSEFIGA
- protocol.notes: Enzymology experiment in vitro (HTRF/FRET kinase activity), wild-type EGFR
- Type: biochemical
- conditions.used: HTRF KinEASE-TK, read-out: EGFR (WT) IC50
pIC50: −log10 of the molar value.
recorded.endpoint: pIC50

Worked cases, pIC50 given:
{"compound": "COc1cc(N2C[C@@H](C)O[C@@H](C)C2)c(-c2cnn(C)c2)cc1Nc1ncc(Br)c(Nc2ccc3nccnc3c2P(C)(C)=O)n1 [compound 111]", "data.value": 8.25}
{"compound": "COc1cc(N2CC3CC2CN3C)c(-c2cnn(C)c2)cc1Nc1ncc(Br)c(Nc2ccc3nccnc3c2P(C)(C)=O)n1 (stereo not shown) [compound 11]", "data.value": 7.92}
{"compound": "COc1cc(N2CC(C)OC(C)C2)c(-c2cnn(C)c2)cc1Nc1ncc(Br)c(Nc2ccc3nccnc3c2P(C)(C)=O)n1 (single isomer, unassigned) [155b]", "data.value": 7.66}
{"compound": "COc1cc(C2CCOCC2)c(-c2cnn(C)c2)cc1Nc1ncc(Br)c(Nc2ccc3nccnc3c2P(C)(C)=O)n1 [Compound 69]", "data.value": 7.76}
{"compound": "COc1cc(N2CCN(C3COC3)CC2)c(-c2cnn(C)c2)cc1Nc1ncc(Br)c(Nc2ccc3nccnc3c2P(C)(C)=O)n1 [compound 150]", "data.value": 8.61}
{"compound": "COc1cc(S(=O)(=O)N(C)C)c(-c2cnn(C)c2)cc1Nc1ncc(Br)c(Nc2ccc3nccnc3c2P(C)(C)=O)n1 [Compound 35]", "data.value": 6.42}
{"compound": "COc1cc(N2CCOCC2)c(-c2ccn(C)n2)cc1Nc1ncc(Br)c(Nc2ccc3nccnc3c2P(C)(C)=O)n1 [compound 140]", "data.value": 7.02}
{"compound": "COc1cc(N2CCC3(CCOC3)C2)c(-c2cnn(C)c2)cc1Nc1ncc(Br)c(Nc2ccc3nccnc3c2P(C)(C)=O)n1 (stereo not shown) [compound 203]", "data.value": 7.67}
{"compound": "CCOc1nc(N2CCOCC2)c(-c2cnn(C)c2)cc1Nc1ncc(Br)c(Nc2ccc3nccnc3c2P(C)(C)=O)n1 [compound 36]", "data.value": 7.66}
{"compound": "COc1cc(N2CCOCC2)c(-c2cccs2)cc1Nc1ncc(Br)c(Nc2ccc3nccnc3c2P(C)(C)=O)n1 [compound 83]", "data.value": 6.00}

I. COc1cc(N2CCOCC2)c(-c2cnn(C)c2)cc1Nc1ncc(Br)c(Nc2ccccc2NS(C)(=O)=O)n1 [Compound 80]
II. COc1cc(N(C)CCN(C)C)c(-c2cnn(C)c2)cc1Nc1ncc(Br)c(Nc2ccc3nccnc3c2P(C)(C)=O)n1 [compound 21]
Among I and II , whose measured pIC50 is the smaller figure? Kindly state the label of the option you pick.
I
